Recorded IC50 values for a group of compounds are listed next.
Target: AuroraB (h) (Homo sapiens)
Sequence (Q96GD4 whole entry): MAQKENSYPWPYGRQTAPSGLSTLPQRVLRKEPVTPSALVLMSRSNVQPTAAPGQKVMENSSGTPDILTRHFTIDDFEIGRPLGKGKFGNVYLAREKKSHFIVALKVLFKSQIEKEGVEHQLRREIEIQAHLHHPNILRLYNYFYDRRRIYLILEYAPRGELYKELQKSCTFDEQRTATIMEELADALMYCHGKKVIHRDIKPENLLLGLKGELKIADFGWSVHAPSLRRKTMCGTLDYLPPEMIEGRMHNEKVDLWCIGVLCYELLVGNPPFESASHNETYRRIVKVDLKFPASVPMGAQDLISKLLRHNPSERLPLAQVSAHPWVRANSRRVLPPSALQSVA
Assay: Aurora-B human kinase assay (SPA)
Assay type: biochemical
Details: read-out: AuroraB pIC50 (converted)
Description: The in vitro inhibition of a panel of kinases was assessed using either the scintillation proximity assay (SPA) as described by Cook, N. D. et al., Advances in Experimental Medicine and Biology (1991), 36; p. 525-528; or the Fluorescence Resonance Energy Transfer (FRET) technology as described by Rodems, S. M. et al., Assay Drug Develop. Technol. (2002), 1; p. 9-19. […]

>  <Compound>
CN1CCCNc2ncnc3c2/C(=C/Nc2ccc(NC(=O)NC4CCCCC4)c(c2)OCCCC1=O)C(=O)N3

>  <Readout Value>
0.275 µM

$$$$
>  <Compound>
CN1CCNc2ncnc3c2/C(=C/Nc2cc(cc(C(F)(F)F)c2)OCCCC1=O)C(=O)N3

>  <Readout Value>
> 10 µM

$$$$
>  <Compound>
COc1ccc2cc1OCCCCCC(=O)N1CCN(CC1)c1ncnc3c1/C(=C/N2)C(=O)N3

>  <Readout Value>
> 10 µM

$$$$
>  <Compound>
CN1CCNc2ncnc3c2/C(=C/Nc2cccc(c2)OCCN2C[C@H](O)C[C@@H]2C1=O)C(=O)N3

>  <Readout Value>
> 10 µM

$$$$
>  <Compound>
COCCN1CCCOc2cccc(c2)N/C=C2\C(=O)Nc3ncnc(c32)NCCN(C)C(=O)C1

>  <Readout Value>
> 10 µM

$$$$
>  <Compound>
COc1ccc2cc1OCCCCCC(=O)N(C)CCNc1ncnc3c1/C(=C/N2)C(=O)N3

>  <Readout Value>
0.214 µM

$$$$

// IC50 value for CCN1CCCCCC(=O)N2CCN(CC2)c2cccc3c2C(=CNc2cccc(c2)S(=O)(=O)N(C)CC1=O)C(=O)N3 (mixture of isomers) : > 10 µM

====

Target: PLK4 (h) (Homo sapiens)
Sequence (O00444 whole entry): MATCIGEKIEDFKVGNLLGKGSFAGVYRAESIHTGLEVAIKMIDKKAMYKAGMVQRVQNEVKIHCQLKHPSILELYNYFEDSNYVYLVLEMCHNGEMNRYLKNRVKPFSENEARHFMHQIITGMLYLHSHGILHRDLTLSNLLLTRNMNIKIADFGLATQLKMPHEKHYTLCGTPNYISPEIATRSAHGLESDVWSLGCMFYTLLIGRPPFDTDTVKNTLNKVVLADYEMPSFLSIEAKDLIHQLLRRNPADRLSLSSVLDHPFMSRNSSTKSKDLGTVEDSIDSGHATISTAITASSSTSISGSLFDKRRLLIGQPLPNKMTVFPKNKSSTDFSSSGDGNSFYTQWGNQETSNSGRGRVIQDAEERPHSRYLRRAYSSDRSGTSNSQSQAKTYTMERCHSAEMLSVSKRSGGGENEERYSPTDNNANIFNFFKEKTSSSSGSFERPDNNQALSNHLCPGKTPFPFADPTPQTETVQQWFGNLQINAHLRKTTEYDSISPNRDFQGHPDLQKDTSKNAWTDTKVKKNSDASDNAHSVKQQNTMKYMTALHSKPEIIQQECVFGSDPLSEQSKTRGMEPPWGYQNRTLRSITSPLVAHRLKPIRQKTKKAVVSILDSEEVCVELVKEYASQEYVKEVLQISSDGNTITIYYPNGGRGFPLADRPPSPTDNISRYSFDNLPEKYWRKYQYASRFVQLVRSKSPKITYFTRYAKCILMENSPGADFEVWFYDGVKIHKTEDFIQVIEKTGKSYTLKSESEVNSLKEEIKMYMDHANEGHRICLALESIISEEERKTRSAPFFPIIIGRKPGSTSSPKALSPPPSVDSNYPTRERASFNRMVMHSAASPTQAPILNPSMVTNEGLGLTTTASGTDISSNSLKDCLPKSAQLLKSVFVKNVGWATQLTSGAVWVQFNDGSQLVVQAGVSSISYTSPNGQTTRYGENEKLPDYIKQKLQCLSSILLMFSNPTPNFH
Experiment: PLK-4 human kinase assay (SPA)
Format: biochemical
Details: read-out: PLK4 pIC50 (converted)
Description: The in vitro inhibition of a panel of kinases was assessed using either the scintillation proximity assay (SPA) as described by Cook, N. D. et al., Advances in Experimental Medicine and Biology (1991), 36; p. 525-528; or the Fluorescence Resonance Energy Transfer (FRET) technology as described by Rodems, S. M. et al., Assay Drug Develop. Technol. (2002), 1; p. 9-19. […]
Property Measured: IC50 (µM)

>  <Compound>
CN1CCCNc2ncnc3c2/C(=C/Nc2cc(cc(C(F)(F)F)c2)OCCCCC1=O)C(=O)N3 [Compound 130]

>  <Measurement Target>
PLK4 (h) (Homo sapiens)

>  <Property Measured>
IC50

>  <Readout Value>
4.9

$$$$
>  <Compound>
COc1ccc2cc1OCCCC(=O)NCCN(C)c1ncnc3c1/C(=C/N2)C(=O)N3 [Compound 38]

>  <Measurement Target>
PLK4 (h) (Homo sapiens)

>  <Property Measured>
IC50

>  <Readout Value>
2.63

$$$$

1 = O=C1COc2cccc(c2)N/C=C2\C(=O)Nc3ncnc(c32)N2CCN(CC2)C[C@@H](Cc2ccccc2)N1 [Compound 101]
2 = CN1CCNc2ncnc3c2/C(=C/Nc2cccc(c2)OCCN2C[C@H](O)C[C@@H]2C1=O)C(=O)N3 [Compound 166]
Q) Input pair: 1 , 2 . Output: entry with lower IC50. Kindly give the label for the entry you pick.
A) 2
(2: 2.19 µM, 1: 3.16 µM)

P = CN1CCCNc2ncnc3c2/C(=C/Nc2cccc(c2)OCCCCCCC1=O)C(=O)N3 [Compound 69]
Q = COc1ccc2cc1OCCCC(=O)N(C)CCCN(C)c1ncnc3c1/C(=C/N2)C(=O)N3 [Compound 31]
Q) Among P and Q , whose measured IC50 is the smaller figure? Please identify the chosen entry by its label.
A) Q
(Q: 0.525 µM, P: 3.39 µM)

====

Target: PLK4 (h) (Homo sapiens)
Test: PLK-4 human kinase assay (SPA)
Format: biochemical
Settings: read-out: PLK4 pIC50 (converted)
Property Measured: IC50 (µM)

>  <Compound>
COc1ccc2cc1OCCCCCCC(=O)N(C)CCCNc1ncnc3c1/C(=C/N2)C(=O)N3 [Compound 72]

>  <Property Measured>
IC50

>  <Units Text>
µM

>  <Readout Value>
1.45

$$$$
>  <Compound>
CN1CCNc2ncnc3c2/C(=C/Nc2cccc(c2)OCC(=O)N(C)CC1)C(=O)N3 [Compound 148]

>  <Property Measured>
IC50

>  <Units Text>
µM

>  <Readout Value>
1.82

$$$$

P = CN1CCNc2ncnc3c2/C(=C/Nc2cccc(c2)OCCN(C)[C@H](CO)C1=O)C(=O)N3 [Compound 164]
Q = CN1CCCCCCC(=O)N(C)CCCNc2ncnc3c2/C(=C/Nc2cccc(c2)C1)C(=O)N3 [Compound 74]
Q) Could you tell me which of P and Q has the lower IC50 reading? // output: label of the selected item
A) P

====

Biological target: CDK1/CyclinB (h) (Homo sapiens, UniProt P06493)
Sequence (P06493 whole entry): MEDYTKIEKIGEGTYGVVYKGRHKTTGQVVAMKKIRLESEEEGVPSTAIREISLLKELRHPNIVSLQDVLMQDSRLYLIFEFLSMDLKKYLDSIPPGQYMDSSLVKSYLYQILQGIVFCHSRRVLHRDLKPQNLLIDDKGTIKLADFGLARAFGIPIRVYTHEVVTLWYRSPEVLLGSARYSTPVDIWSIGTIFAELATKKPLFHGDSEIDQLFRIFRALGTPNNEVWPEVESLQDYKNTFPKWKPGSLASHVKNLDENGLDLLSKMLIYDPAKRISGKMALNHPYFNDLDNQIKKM
Sequence (P14635 whole entry partner): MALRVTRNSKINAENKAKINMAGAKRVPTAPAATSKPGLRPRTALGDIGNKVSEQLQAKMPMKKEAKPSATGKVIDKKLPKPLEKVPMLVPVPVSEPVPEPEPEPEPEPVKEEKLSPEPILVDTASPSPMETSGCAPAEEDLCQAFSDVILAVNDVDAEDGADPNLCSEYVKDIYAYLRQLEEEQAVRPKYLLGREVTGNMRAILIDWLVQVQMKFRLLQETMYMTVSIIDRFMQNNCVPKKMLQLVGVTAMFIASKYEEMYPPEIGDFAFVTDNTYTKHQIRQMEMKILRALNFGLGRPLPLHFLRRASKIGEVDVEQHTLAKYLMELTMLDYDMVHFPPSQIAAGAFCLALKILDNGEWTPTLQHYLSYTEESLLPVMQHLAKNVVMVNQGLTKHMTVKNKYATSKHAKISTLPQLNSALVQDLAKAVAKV
Assay: CDK1/CyclinB human kinase assay (FRET)
Type: biochemical
Item-by-item account of CDK1 pIC50
Respond using a number only.

>  <Molecule>
COc1ccc2cc1OCCCCC(=O)N(C)CCCNc1ncnc3c1C(=CN2)C(=O)N3 (mixture of isomers)

>  <CDK1 pIC50>
6.46

$$$$

CDK1 pIC50 reading for CN1CCCNc2ncnc3c2C(=CNc2ccc(Cl)c(c2)OCCCC1=O)C(=O)N3 (mixture of isomers) : 6.1

The molecule O=C1CCCOc2cccc(c2)NC=C2C(=O)Nc3ncnc(c32)NCCCN1 (mixture of isomers) showed CDK1 pIC50 equal to 6.83

====

Quick reference: PLK4 pIC50 of the listed items.
Biological target: UniProt:O00444
Assay: PLK-4 human kinase assay (SPA)
Assay type: biochemical
Field format: numeric only.

>  <Compound>
CN1CCN(c2ccc3cc2OCCCC(=O)N(C)CCNc2ncnc4c2C(=CN3)C(=O)N4)CC1 (mixture of isomers) [Compound 137]

>  <PLK4 pIC50>
7.3

$$$$

According to the records, this compound COc1ccc2cc1OCCCCCCC(=O)N(C)CCNc1ncnc3c1C(=CN2)C(=O)N3 (mixture of isomers) [Compound 76] displays PLK4 pIC50 of 5.72

====

Molecular target: GSK3β (h) (Homo sapiens, UniProt P49841)
Sequence (P49841 whole entry): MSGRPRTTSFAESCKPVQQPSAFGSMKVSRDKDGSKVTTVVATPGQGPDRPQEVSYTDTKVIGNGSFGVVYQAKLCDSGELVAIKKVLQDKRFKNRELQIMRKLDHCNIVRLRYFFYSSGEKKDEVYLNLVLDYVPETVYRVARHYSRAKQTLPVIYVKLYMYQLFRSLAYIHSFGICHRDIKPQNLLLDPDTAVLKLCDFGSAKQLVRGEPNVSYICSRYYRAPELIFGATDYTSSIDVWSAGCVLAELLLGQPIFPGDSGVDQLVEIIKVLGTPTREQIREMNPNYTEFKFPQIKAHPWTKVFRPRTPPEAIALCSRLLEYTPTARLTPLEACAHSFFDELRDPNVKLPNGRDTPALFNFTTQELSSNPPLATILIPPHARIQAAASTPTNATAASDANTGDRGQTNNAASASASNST
Assay: GSK-3β human kinase assay (SPA)
Type: biochemical
Property Measured: GSK3B pIC50
Field format: numeric only.

Check out these entries, answers already filled in.
>  <Compound>
COc1cc2cc(c1OC)OCCCCC(=O)N(C)CCCNc1ncnc3c1C(=CN2)C(=O)N3 (mixture of isomers)

>  <Readout Value>
5.35

$$$$
>  <Compound>
CN1CCN(c2ccc3cc2OCCCC(=O)N(C)CCCNc2ncnc4c2C(=CN3)C(=O)N4)CC1 (mixture of isomers)

>  <Readout Value>
6.95

$$$$

GSK3B pIC50 measured on COc1ccc2cc1CN(C)CCCCCCC(=O)N(C)CCCNc1ncnc3c1C(=CN2)C(=O)N3 (mixture of isomers) = 5.04

====

Tested on: SKOV3
Test: Cellular proliferation assay (Alamar blue), SKOV3
Type: cell-based
Conditions: Homo sapiens, SK-OV-3, SKOV3 cells, 72 hours with compound, 10% FCS, read-out: pIC50 SKOV3 (converted)
Each record here notes measured IC50.

Example entries and their recorded answers appear below.
>  <Molecule>
COc1cc2cc(c1OC)CN(C)CC(=O)N(C)CCNc1ncnc3c1/C(=C/N2)C(=O)N3

>  <Property Measured>
IC50

>  <Readout Value>
> 10 µM

$$$$
>  <Molecule>
COc1ccc2cc1OCCCC(=O)N(C(C)C)CCN(C)c1ncnc3c1/C(=C/N2)C(=O)N3

>  <Property Measured>
IC50

>  <Readout Value>
3.31 µM

$$$$
>  <Molecule>
O=C1Nc2ncnc3c2/C1=C/Nc1ccc(c(F)c1)OCCCCCC(=O)N1CCN3CC1

>  <Property Measured>
IC50

>  <Readout Value>
> 10 µM

$$$$
>  <Molecule>
CN1CCCCCC(=O)N2CCN(CC2)c2ncnc3c2/C(=C/Nc2cccc(c2)C1)C(=O)N3

>  <Property Measured>
IC50

>  <Readout Value>
> 10 µM

$$$$
>  <Molecule>
COc1cc2cc(c1OC)CN(C)CCCCC(=O)N(C)CCNc1ncnc3c1/C(=C/N2)C(=O)N3

>  <Property Measured>
IC50

>  <Readout Value>
> 10 µM

$$$$
>  <Molecule>
COc1cc2cc(c1OC)CN(C)CCCC(=O)N(C)CCNc1ncnc3c1/C(=C/N2)C(=O)N3

>  <Property Measured>
IC50

>  <Readout Value>
> 10 µM

$$$$

For this molecule ( O=C1Nc2ncnc3c2C1=CNc1ccc(c(Cl)c1)OCCCCCC(=O)N1CCN3CC1 (mixture of isomers) ), measured IC50 is > 10 µM

molecule CC(C)N1CCCCCC(=O)N2CCN(CC2)c2ncnc3c2/C(=C/Nc2ccc(F)c(c2)C1)C(=O)N3 , IC50 observed: > 10 µM
